# Test system: NCI-H226 lung
# assay_notes: NCI tumour cell line growth inhibition, 48 h; in the data active = GI50 below about 0.43 µM; inactive = the rest
Return exactly one item of Y for active, N for inactive

Past entries and their recorded results:
CN1CCN(CCCOc2ccc3nc(Nc4ccc(Cl)c(C(F)(F)F)c4)ccc3c2)CC1 N
COC(=O)[C@H](C)NC(=O)NC(=O)NC(=O)CI N

Here is the next item to consider.
q: Outcome logged for COc1ccc(-c2n[nH]nc2-c2cc(OC)c(OC)c(OC)c2)cc1 in this assay:
a: Y

---

# Test system: 786-0 renal
# assay_notes: NCI tumour cell line growth inhibition, 48 h; in the data active = GI50 below about 0.43 µM; inactive = the rest
Respond with a class label; see class 1 (active), class 0 (inactive)

Use these answered entries as a reference point.
compound	class_label
Cc1cc(S(=O)(=O)Nc2nnc(-c3ccccc3)c(-c3ccccc3)n2)c(SCC(N)=O)cc1Cl	class 0
O=C(NC1=CC(=O)c2ccccc2C1=O)c1ccccc1	class 0
COc1ccccc1CNCCCN1C(=O)c2ccc3c4c(ccc(c24)C1=O)C(=O)N(CCCOCCCCOCCCN)C3=O	class 0
COC1=CC(=O)c2nc(-c3cccc(C)n3)[nH]c2C1=O	class 0
COc1cc2nc3cc([N+](=O)[O-])ccc3c(NCCCNCCO)c2cc1OC	class 1

q: # outcome recorded in this test, key = C=C1C(=O)O[C@H]2[C@H]1CC/C(COC(=O)C(=O)c1cn(Cc3ccccc3)c3ccccc13)=C\CC[C@@]1(C)O[C@@H]21
a: class 0

---

# Tested on: CCRF-CEM leukemia
# assay_notes: NCI tumour cell line growth inhibition, 48 h; in the data active = GI50 below about 0.43 µM; inactive = the rest
Respond using exactly one of the listed classes: True (active), False (inactive)

compound	class_label
Cc1cc(S(=O)(=O)Nc2nnc(-c3ccccc3)c(-c3ccccc3)n2)c(SCC(N)=O)cc1Cl	False
Cc1cccc(N2CCN(C(=S)c3ccc4c(c3)OCO4)CC2)c1	False
COc1cc2c3c(n(CCCNC(=O)OCC4c5ccccc5-c5ccccc54)c(=O)c2cc1OC)-c1cc2c(cc1/C3=C\CCNC(=O)OCC1c3ccccc3-c3ccccc31)OCO2	False
N=C1C(c2nc3ccccc3s2)=C(O)CN1c1cc(C(F)(F)F)ccc1Cl	False
CC(=O)[O-].CCN(CC)c1ccc(C=NCCN=Cc2ccc(N(CC)CC)cc2[O-])c([O-])c1.[Mn+3]	False
COc1cc(-c2ccc3c(c2)NC(=O)/C3=C\c2ccc[nH]2)ccc1O	True
COC(=O)C1=CNC=C(C(=O)OC)C1C1=CC(=O)C(C)=CC1=O	False
CCC[CH2][Sn]1([CH2]CCC)[O]CC(CN2CCCC2)[O]1 (centres undefined)	False
C=C1C(=O)O[C@H]2[C@H]1CC/C(COC(=O)C(=O)c1cn(Cc3ccccc3)c3ccccc13)=C\CC[C@@]1(C)O[C@@H]21	False
COc1cc2ncnc(Nc3ccc(C)c(O)c3)c2cc1OC	False

q: Tell me the recorded outcome of this test for COc1ccc(Cn2cc3c(c2-c2ccccc2)CC(C)(C)c2cnoc2-3)cc1 .
a: False

q: What outcome does the record of this test show for C[C@@]12CC=C3c4nc(Nc5cccc(O)c5)sc4CC[C@]3(C)[C@H]1CC[C@]1(C)C(=O)CC[C@@H]21 ?
a: False

q: Each compound tested received a call. Report the one for CN1C/C=C\CCOc2cccc(c2)-c2ccnc(n2)Nc2cccc(c2)C1 .
a: True

q: Hi, sorry to bother you, what did the test record for Cc1cc(C(=O)Nc2ncc(Cc3cccc(C(F)(F)F)c3)s2)c2ccccc2n1 ?
a: False
